System: MS2 coat protein
Protocol Description: apparent KD of MS2 coat protein; higher = weaker reporter binding
Condition Summary: Eterna round: R107; input ligand: theophylline 20 uM
Recorded Metric: apparent KD of MS2 coat protein (nM)
Give your result in nM as a bare value.

Task: Returns the measured apparent KD of MS2 coat protein for the input sequence. Input: CAGACUAGGGCGGCCGCCACUGUGGCUACGGUACAUGAGGAUCACCCAUGUUUGUGGUUGAUCUACAGGACCGGGCCCUGGCACG [Orbera]
Output: 588

Task: Returns the measured apparent KD of MS2 coat protein for the input sequence. Input: ACGAUACGACAUGAGGAUCACCCAUGUGAUACCAGCGUGGAAACACGCCCUUGGCAGCACAAAUACUCCAGAAACGUAUCGAAAA [MAT - Exclusion Theophlline A - Mod of Eli - D7]
Output: 258

Task: Returns the measured apparent KD of MS2 coat protein for the input sequence. Input: UAAACUACACAUGAGGAUCACCCAUGUGGCCGAGGACCGGUACGGCCGCCACUCGUGUGUUAAUAAAAGAACUGCAAGAUUCUUU [Issoraor]
Output: 220

Task: Returns the measured apparent KD of MS2 coat protein for the input sequence. Input: UUGGGUAUGCGAAGGAGCGGGAAAUAUAUAUAUAUAAUCCUAACAUGAGGAUCACCCAUGUCCCAGGUAGGUCGCGCAUGUUUGG [12.K]
Output: 250

Task: Returns the measured apparent KD of MS2 coat protein for the input sequence. Input: GGAUUACGAAAGUAGUCCAUCAAGUUCGAGCGAGGACCGGUACGGCCGCCACUCGAACAUGAGGAUCACCCAUGUAGCGAAAGCU [Tryptophan A 21]
Output: 304

Task: Returns the measured apparent KD of MS2 coat protein for the input sequence. Input: CCCUGGGUGGGAAGGAGCGCAUAGUGAACAUGAGGAUCACCCAUGUGUAGACGUGAGUCACUGCAGGUAGGUCGCCCACCCAGGG [SS-ArgB23]
Output: 47.3

Reference source for all entries: the supplement of paper PMC9170038
